Reference source for all entries: patent EP1984353B1

Items are presented alongside their recorded pIC50.
target: AuroraA-TPX2 (Homo sapiens); construct: 20 µL of AuroraA-TPX2 KD GST; GST; test: AuroraA-TPX2 Homogeneous Time Resolved Fluorescent (HTRF) kinase assay; assay type: biochemical; conditions: average; given as numbers, unit inferred; read-out: AurA/TP X2_ IC50_IP (Avg)
# pIC50: negative log10 of molar concentration; output just the value

As a guide, the following entries are already answered.
line_notation	pIC50
Nc1nccc(-c2cccnc2Oc2ccc(Nc3nnc(-c4ccc(CCO)cc4)c4ccccc34)cc2)n1	7.70
C[C@@H](O)c1ccc(-c2nnc(Nc3ccc(Oc4ncccc4-c4ccnc(N)n4)cc3)c3ccccc23)cc1	6.83
c1ccc(-c2nnc(Nc3ccc(Oc4ncccc4-c4ccnc(NCCCN5CCCCC5)n4)nc3)c3ccccc23)cc1	7.02

Look up and state reported pIC50 for O=C1Cc2c(-c3cccnc3Oc3ccc(Nc4nnc(-c5ccccc5)c5ccccc45)cc3)ccnc2N1 7.69

Look up and state reported pIC50 for Cc1csc(-c2nnc(Nc3ccc(Oc4ncccc4-c4ccnc5c4CCCN5)cc3)c3ccccc23)n1 6.78

---

Target: AuroraA-TPX2 (Homo sapiens, UniProt O14965)
Construct: 20 µL of AuroraA-TPX2 KD GST; GST
Sequence (O14965 133-383 limits assumed): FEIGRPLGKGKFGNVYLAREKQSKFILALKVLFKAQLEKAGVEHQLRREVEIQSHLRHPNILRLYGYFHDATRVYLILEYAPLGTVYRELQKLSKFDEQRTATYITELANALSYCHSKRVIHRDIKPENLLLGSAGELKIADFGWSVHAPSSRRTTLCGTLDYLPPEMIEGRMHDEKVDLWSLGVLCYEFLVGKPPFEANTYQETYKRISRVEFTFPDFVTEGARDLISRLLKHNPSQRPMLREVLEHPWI
Sequence (Q9ULW0 1-43 partner limits assumed): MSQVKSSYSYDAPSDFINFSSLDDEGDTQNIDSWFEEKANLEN
Experiment: AuroraA-TPX2 Homogeneous Time Resolved Fluorescent (HTRF) kinase assay
Format: biochemical
Conditions: average; given as class symbols; read-out: AurA/TP X2_ IC50_IP (Avg)
measured_attribute: IC50

compound	IC50
Cc1cc(-c2ccccc2)nnc1Nc1ccc(Oc2ncccc2-c2ccnc3c2CCCN3)cc1 [compound 285]	0.5 to 2.5 µM

Give IC50 for Nc1nccc(-c2cccnc2Oc2ccc(Nc3nnc(-c4ccccc4)cc3C(=O)O)cc2)n1 [compound 433] tested on AuroraA-TPX2 (Homo sapiens, UniProt O14965). 0.5 to 2.5 µM

Give IC50 for COc1cccc(-c2nnc(Nc3ccc(Oc4ncccc4-c4ccnc(NCCCN5CCN(C)CC5)n4)cc3)c3ccccc23)n1 [compound 410] tested on AuroraA-TPX2 (Homo sapiens, UniProt O14965). ≤ 0.1 µM

Give IC50 for Cc1ccnc(-c2nnc(Nc3ccc(Oc4ncccc4-c4ccnc(NCCCN5CCN(C)CC5)n4)cc3)c3ccccc23)c1 [compound 409] tested on AuroraA-TPX2 (Homo sapiens, UniProt O14965). 0.1 to 0.5 µM

Give IC50 for Nc1nccc(-c2cccnc2Oc2ccc(Nc3nnc(-c4cccc(OC(F)(F)F)c4)c4ccccc34)cc2)n1 [compound 377] tested on AuroraA-TPX2 (Homo sapiens, UniProt O14965). ≤ 0.1 µM

---

target: AuroraA-TPX2 (Homo sapiens, UniProt O14965); construct: 20 µL of AuroraA-TPX2 KD GST; GST; assay: AuroraA-TPX2 Homogeneous Time Resolved Fluorescent (HTRF) kinase assay; format: biochemical; details: average; given as class symbols; read-out: AurA/TP X2_ IC50_IP (Avg)
pIC50: −log10 of the molar value.
measured_attribute: pIC50

As a guide, the following entries are already answered.
line_notation	subject_of_test	pIC50
Nc1nccc(-c2cccnc2Oc2ccc(Nc3nnc(N4CCNCC4)c4ccccc34)cc2)n1	AuroraA-TPX2 (Homo sapiens, UniProt O14965)	5.60 to 6.30
Nc1nccc(-c2cccnc2Oc2ccc(Nc3nnc(-c4cccc(COP(=O)(O)O)c4)c4ccccc34)cc2)n1	AuroraA-TPX2 (Homo sapiens, UniProt O14965)	6.30 to 7.00

Shifting focus to the molecule that follows.
Look up and state reported pIC50 for COc1cccc(-c2nnc(Nc3ccc(Oc4ncccc4-c4ccnc(NCCCN5CCCCC5)n4)cc3)c3ccccc23)n1 ≥ 7.00

---

system: phosphorylation of Histone H3; experiment: HeLa cell 1-hour phospho-histone assay; type: cell-based; conditions: Homo sapiens, HeLa, 1 h, HeLa cells, 1 hour; average; given as class symbols; read-out: pHH3 EC50_IP (Avg)
pEC50: −log10 of the molar value.
measured_attribute: pEC50

As a guide, the following entries are already answered.
compound	pEC50
Cc1csc(-c2nnc(Nc3ccc(Oc4ncccc4-c4ccnc(N)n4)cc3)c3ccccc23)n1	≥ 7.00
Cc1csc(-c2nnc(Nc3ccc(Oc4ncccc4-c4c[nH]nc4N)cc3)c3ccccc23)n1	5.60 to 6.30
CN(C)CCCCNc1nccc(-c2cccnc2Oc2ccc(Nc3nnc(-c4ccccc4)c4ccccc34)cc2)n1	≥ 7.00
Cc1csc(-c2nnc(Nc3ccc(Oc4ncccc4-c4ccnc(N)c4)cc3)c3ccccc23)n1	6.30 to 7.00
Cc1cc(-c2ccccc2)nnc1Nc1ccc(Oc2ncccc2-c2ccnc(NCCCN3CCCCC3)n2)cc1	6.30 to 7.00
Nc1nccc(-c2cccnc2Oc2ccc(Nc3nnc(-c4cccc(O)c4)c4ccccc34)cc2)n1	≥ 7.00

Look up and state reported pEC50 for Nc1nccc(-c2cccnc2Oc2ccc(Nc3nnc(-c4ccc(CO)cc4)c4ccccc34)cc2)n1 6.30 to 7.00

Look up and state reported pEC50 for Cc1cc(-c2ccccc2)nnc1Nc1ccc(Oc2ncccc2-c2ccnc(NCCCCN(C)C)n2)cc1 6.30 to 7.00

Look up and state reported pEC50 for CC(O)c1cccc(-c2nnc(Nc3ccc(Oc4ncccc4-c4ccnc(N)n4)cc3)c3ccccc23)c1 (stereo not shown) 6.30 to 7.00

Look up and state reported pEC50 for CCN(CCO)CCCCNc1nccc(-c2cccnc2Oc2ccc(Nc3nnc(-c4ccccc4)cc3C)cc2)n1 6.30 to 7.00

Look up and state reported pEC50 for CN1CCN(CCCNc2cc(-c3cccnc3Oc3ccc(Nc4nnc(-c5ccccc5)c5ccccc45)cc3)ccn2)CC1 6.30 to 7.00

Look up and state reported pEC50 for Cc1csc(-c2cc(C)c(Nc3ccc(Oc4ncccc4-c4ccncc4)cc3)nn2)c1 5.60 to 6.30

---

Items are presented alongside their recorded IC50.
target: AuroraA-TPX2 (Homo sapiens, UniProt O14965); construct: 20 µL of AuroraA-TPX2 KD GST; GST; experiment: AuroraA-TPX2 Homogeneous Time Resolved Fluorescent (HTRF) kinase assay; type: biochemical; conditions: average; given as class symbols; read-out: AurA/TP X2_ IC50_IP (Avg)

As a guide, the following entries are already answered.
molecule	IC50
Nc1nccc(-c2cccnc2Oc2ccc(Nc3nnc(-c4ccc(Cl)cc4)c4ccccc34)cn2)n1 [compound 315]	≤ 100 nM
CN(C)Cc1ccc(-c2nnc(Nc3ccc(Oc4ncccc4-c4ccnc(N)n4)cc3)c3ccccc23)cc1 [compound 336]	500 to 2500 nM
Cc1ccnn1-c1nnc(Nc2ccc(Oc3ncccc3-c3ccnc(N)n3)cc2)c2ccccc12 [compound 407]	≤ 100 nM
CCN(CCO)CCCCNc1nccc(-c2cccnc2Oc2ccc(Nc3nnc(-c4ccccc4)c4ccccc34)cc2)n1 [compound 347]	≤ 100 nM

Give IC50 for COc1ccc(F)c(-c2nnc(Nc3ccc(Oc4ncccc4-c4ccnc(N)n4)cc3)c3ccccc23)c1 [compound 372] tested on AuroraA-TPX2 (Homo sapiens, UniProt O14965). ≤ 100 nM

Give IC50 for CC(=O)OCc1cccc(-c2nnc(Nc3ccc(Oc4ncccc4-c4ccnc(N)n4)cc3)c3ccccc23)n1 [compound 296] tested on AuroraA-TPX2 (Homo sapiens, UniProt O14965). ≤ 100 nM

Give IC50 for Cc1cccc(-c2nnc(Nc3ccc(Oc4ncccc4-c4ccnc(NCCCN5CCCCC5)n4)cc3)c3ccccc23)n1 [compound 276] tested on AuroraA-TPX2 (Homo sapiens, UniProt O14965). 100 to 500 nM

---

Items are presented alongside their recorded IC50.
molecular target: AuroraB (Homo sapiens, UniProt Q96GD4); construct: 20 µL of AuroraB FL His; His; test: AuroraB Homogeneous Time Resolved Fluorescent (HTRF) kinase assay; assay type: biochemical; conditions: average; given as class symbols; read-out: AurB_ _IC50_IP (Avg)
Sequence (Q96GD4 whole entry): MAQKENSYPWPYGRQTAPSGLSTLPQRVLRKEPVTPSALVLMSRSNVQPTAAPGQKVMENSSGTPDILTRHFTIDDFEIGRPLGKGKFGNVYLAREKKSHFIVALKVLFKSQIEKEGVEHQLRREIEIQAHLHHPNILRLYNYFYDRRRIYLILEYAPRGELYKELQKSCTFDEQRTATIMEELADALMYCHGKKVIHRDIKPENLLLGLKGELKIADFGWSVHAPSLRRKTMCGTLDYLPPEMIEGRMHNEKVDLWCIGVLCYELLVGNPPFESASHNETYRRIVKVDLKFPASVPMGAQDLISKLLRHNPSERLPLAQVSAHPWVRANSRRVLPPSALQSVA

line_notation	IC50
CNc1cc(-c2cccnc2Nc2ccc(Nc3nnc(-c4ccccc4)c4ccccc34)cc2)ncn1	≤ 100 nM
C[C@@H]1CN(c2nnc(Nc3ccc(Oc4ncccc4-c4ccnc(N)n4)cc3)c3ccccc23)CCN1	100 to 500 nM

Look up and state reported IC50 for Nc1nccc(-c2cccnc2Oc2ccc(Nc3nnc(-c4cccc(O)c4)c4ccccc34)cn2)n1 ≤ 100 nM

---

Items are presented alongside their recorded pIC50.
Biological target: AuroraA-TPX2 (Homo sapiens)
Construct: 20 µL of AuroraA-TPX2 KD GST; GST
Sequence (O14965 133-383 limits assumed): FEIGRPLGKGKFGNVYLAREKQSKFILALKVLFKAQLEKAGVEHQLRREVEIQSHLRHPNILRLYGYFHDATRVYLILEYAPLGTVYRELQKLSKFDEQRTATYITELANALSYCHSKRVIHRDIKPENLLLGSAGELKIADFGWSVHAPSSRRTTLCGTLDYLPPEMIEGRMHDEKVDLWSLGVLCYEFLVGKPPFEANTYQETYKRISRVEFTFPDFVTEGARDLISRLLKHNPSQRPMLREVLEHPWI
Sequence (Q9ULW0 1-43 partner limits assumed): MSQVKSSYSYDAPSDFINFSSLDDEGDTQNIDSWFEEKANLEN
Assay: AuroraA-TPX2 Homogeneous Time Resolved Fluorescent (HTRF) kinase assay
Type: biochemical
Settings: average; given as class symbols; read-out: AurA/TP X2_ IC50_IP (Avg)
pIC50: −log10 of the molar value.

line_notation	subject_of_test	pIC50
Cc1ccn(-c2nnc(Nc3ccc(Oc4ncccc4-c4ccnc(N)n4)cc3)c3ccccc23)n1	AuroraA-TPX2 (Homo sapiens)	≥ 7.00
CCc1cc(-c2ccccc2)nnc1Nc1ccc(Oc2ncccc2-c2ccnc(NCCCN3CCN(C)CC3)n2)cc1	AuroraA-TPX2 (Homo sapiens)	≥ 7.00
Cc1ccnc(-c2nnc(Nc3ccc(Oc4ncccc4-c4ccnc(NCCCN5CCOCC5)n4)cc3)c3ccccc23)c1	AuroraA-TPX2 (Homo sapiens)	6.30 to 7.00

Give pIC50 for Cc1cc(-c2ccccc2)nnc1Nc1ccc(Oc2ncccc2-c2c[nH]nc2N)cc1 tested on AuroraA-TPX2 (Homo sapiens). ≥ 7.00

Give pIC50 for Nc1nccc(-c2cccnc2Oc2ccc(Nc3nnc(-c4ccccc4O)c4ccccc34)cc2)n1 tested on AuroraA-TPX2 (Homo sapiens). 6.30 to 7.00
